The values you see were collected from PubChem BioAssay AID463173.

Test system: DeltatarO mutant
assay.explanation: S. aureus survival, RN4220 and DeltatarO strains – OD600, teichoic acid synthesis inhibitors, primary screen (AID 463173)
condition.info: S. aureus RN4220 wild type/DeltatarO growth, OD600, 18 h, active compounds read low, screened at 18.75 µg/mL (by protocol)
In all, about 52,000 compounds went through this assay and about 4,300 (8.3%) were called active. Only a selection was taken, and actives are over-represented in it overall.
# survival listing for each entry below
Only the number, expressed in %, is required.

# count of solved cases: 2
(Q) Identify the measured survival of COc1ccc(S(=O)(=O)N2CCN(Cc3ccc4c(c3)OCO4)CC2)cc1OC for DeltatarO mutant.
(A) 43

(Q) Identify the measured survival of Cc1ccccc1C(=O)NC1CCN(Cc2nnnn2C2CCCC2)CC1 for DeltatarO mutant.
(A) 101

New cases:
(Q) Identify the measured survival of Cc1ccc(S(=O)(=O)N2CCN(Cc3ccc4c(c3)OCO4)CC2)cc1 for DeltatarO mutant.
(A) 70

(Q) Identify the measured survival of CCc1nn(CCCC(=O)NCc2cc(Br)ccc2OC)c(=O)c2cc3occc3n12 for DeltatarO mutant.
(A) 46

(Q) Identify the measured survival of COc1ccc(N2CCN(S(=O)(=O)c3ccc4c(c3)C(C(C)C)C(=O)N4)CC2)cc1 (stereo unspecified) for DeltatarO mutant.
(A) 125

(Q) Identify the measured survival of Cc1ccc(-n2c(=O)c3c4c(sc3n(CC(=O)c3ccc(Cl)cc3)c2=O)CCC4)cc1C for DeltatarO mutant.
(A) 168

(Q) Identify the measured survival of COc1ccc(Br)cc1CNC(=O)C(C)n1nc(C)n2c(cc3occc32)c1=O (stereo unspecified) for DeltatarO mutant.
(A) 46

(Q) Identify the measured survival of CCCCOC(=O)c1ccc(NC(=O)c2cc(-c3ccccc3)on2)cc1 for DeltatarO mutant.
(A) 91

----------
Test system: DeltatarO mutant
assay.explanation: S. aureus survival, RN4220 and DeltatarO strains – OD600, teichoic acid synthesis inhibitors, primary screen (AID 463173)
condition.info: S. aureus RN4220 wild type/DeltatarO growth, OD600, 18 h, active compounds read low, screened at 18.75 µg/mL (by protocol)
Among all 52,000 compounds or so, about 4,300 (8.3%) were called active. For the sample, actives were picked, then their nearest neighbours and some compounds at random.
readout.type: survival (%)
Only the number, expressed in %, is required.

(Q) Any idea what survival was measured for Cc1cccc(N2CCN(C(=O)C3CCN(c4ncnc5c4nc4n5CCCCC4)CC3)CC2C)c1 (stereo unspecified) ?
(A) 6

(Q) Any idea what survival was measured for O=C(C1CCN(c2ncnc3c2nc2n3CCCCC2)CC1)N1CCN(c2ccccc2)CC1 ?
(A) 72

(Q) Any idea what survival was measured for COc1ccc(CCNC(=O)CSc2nc3ccccc3nc2Cc2ccc(Cl)cc2)cc1OC ?
(A) 37

New cases:
(Q) Any idea what survival was measured for O=C(C1CCN(c2ncnc3c2nc2n3CCCCC2)CC1)N1CCN(c2ccc(Cl)cc2)CC1 ?
(A) 81

(Q) Any idea what survival was measured for Cc1cccc(N2CCN(c3ncnc4c3nc3n4CCCCC3)CC2C)c1 (stereo unspecified) ?
(A) 101

(Q) Any idea what survival was measured for Cc1ccc(-c2nnn(CCC(=O)NC(C)(C)C)n2)cc1 ?
(A) 91

(Q) Any idea what survival was measured for Cc1ccc(Cc2nc3ccccc3nc2SCC(=O)NCCc2ccccc2)cc1 ?
(A) 67

(Q) Any idea what survival was measured for Cc1ccc(N2CCN(C(=O)C3CCN(c4ncnc5c4nc4n5CCCCC4)CC3)CC2)c(C)c1 ?
(A) 79

(Q) Any idea what survival was measured for COC(=O)c1ccc(NC(=O)CSc2nnc3c4ccccc4n(C(C)C)c3n2)cc1 ?
(A) 52

(Q) Any idea what survival was measured for COc1ccc(CCNC(=O)CSc2nc3ccccc3nc2Cc2ccc(C)cc2)cc1OC ?
(A) 35

(Q) Any idea what survival was measured for CCCNC(=O)CSc1nc2ccccc2nc1Cc1ccc(Cl)cc1 ?
(A) 74

(Q) Any idea what survival was measured for Cc1cccc(-n2c(=O)c3c(c4cc(C)ccc4n3C)n(CC(=O)Nc3ccc(C)cc3C)c2=O)c1 ?
(A) 69

(Q) Any idea what survival was measured for CCCCN(C)C(=O)CSc1nc2ccccc2nc1Cc1ccc(C)cc1 ?
(A) 32

(Q) Any idea what survival was measured for CC(=O)N1CCOc2cc(S(=O)(=O)NCc3ccccc3Cl)c(C)cc21 ?
(A) 85
